Target: SIX1-Q177R homeodomain (human, UniProt Q15475 108-198, Q177R)
Sequence: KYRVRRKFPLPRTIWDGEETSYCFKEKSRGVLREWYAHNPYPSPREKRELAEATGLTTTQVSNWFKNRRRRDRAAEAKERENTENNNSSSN
Assay: universal protein binding microarray; Universal all-10-mer PBM (8x60K, AMADID 030236), 300 nM GST-tagged protein, Alexa Fluor 488 anti-GST; buffer, salt, pH and temperature not stated (as in Berger); high values mean tight binding
Conditions: protein: ivt; tags: N-terminal GST; dsDNA, one strand shown
In all, about 33,000 sequences were measured (“e-score”: median about -0.05, highest 2% from about 0.38 on). The sample as a whole holds a higher share of the highest values than the screen did.
# binding signal binned as small value: < 0.2 E-score; mid value: ≥ 0.2 E-score and < 0.4 E-score; large value: ≥ 0.4 E-score

Sample answers from the record:
ACTCGGGC ... small value
AACACTGC ... mid value
GACACTGC ... large value
AATGGACA ... small value
AGCGAGTG ... mid value
CGCACGAC ... small value
CATCAGCG ... small value
ACGGGGGA ... mid value

Prompt line: Bin? "CCCCCAAG"
Response line: mid value

Prompt line: Classify this sequence: "ATTAACAC"
Response line: large value

Prompt line: Please classify: "CTACTCCA"
Response line: mid value

Prompt line: Sort into band: "ATTAACCC"
Response line: small value

Prompt line: Class label required: "AACACTAA"
Response line: mid value

Prompt line: Classify this sequence: "AACACTGA"
Response line: mid value

Prompt line: For this sequence, which bin applies? "ACACGGAC"
Response line: mid value

Prompt line: Where would "ACACGGGG" land among the classes by reported binding signal?
Response line: large value

Prompt line: Where would "CTTCACAC" land among the classes by reported binding signal?
Response line: mid value

Prompt line: Which band does "GGTTAACA" fall in?
Response line: mid value

###

Target: SIX1-Q177R homeodomain (human, UniProt Q15475 108-198, Q177R)
Sequence: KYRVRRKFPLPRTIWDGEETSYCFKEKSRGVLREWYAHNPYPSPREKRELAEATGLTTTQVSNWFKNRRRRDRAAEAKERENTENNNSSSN
Assay: universal protein binding microarray; Universal all-10-mer PBM (8x60K, AMADID 030236), 300 nM GST-tagged protein, Alexa Fluor 488 anti-GST; buffer, salt, pH and temperature not stated (as in Berger); high values mean tight binding
Conditions: protein: ivt; tags: N-terminal GST; dsDNA, one strand shown
Whole data set: some 33,000 sequences, median “e-score” near -0.05, cut for the highest 2% near 0.38. This excerpt belongs to a sample that is enriched for the highest values.
The reader will find reported binding signal values listed item by item below.
# unit: E-score | format: bare number

CGGGGTAA ... 0.235
AAACACCT ... 0.419
AACGTGTG ... 0.154
CCGTGTCA ... 0.465
CGACACAC ... 0.345

Prompt line: Identify binding signal associated with the sequence "CAACACGA"
Response line: 0.328

###

Each entry below carries its reported binding signal.
Molecular target: SIX1-Q177R homeodomain (human, UniProt Q15475 108-198, Q177R)
Sequence: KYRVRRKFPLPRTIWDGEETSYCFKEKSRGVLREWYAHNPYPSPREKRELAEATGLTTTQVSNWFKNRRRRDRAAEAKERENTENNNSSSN
Assay: universal protein binding microarray; Universal all-10-mer PBM (8x60K, AMADID 030236), 300 nM GST-tagged protein, Alexa Fluor 488 anti-GST; buffer, salt, pH and temperature not stated (as in Berger); high values mean tight binding
Details: protein: ivt; tags: N-terminal GST; dsDNA, one strand shown
Whole data set: some 33,000 sequences, median “e-score” near -0.05, cut for the highest 2% near 0.38. What follows is part of a selection rich in the highest values, with near analogues and random picks from the rest.
Number first, unit second.

In the examples that follow, each entry is paired with its recorded binding signal.
GGGGTGAC ... 0.16 E-score
CGTGACCC ... 0.211 E-score
CAGAACAC ... 0.381 E-score
AGTGACAC ... 0.469 E-score

Prompt line: Report measured binding signal; entry is "AAGAACAC"
Response line: 0.423 E-score

Prompt line: Fill in binding signal for record "AGTGTGCA"
Response line: 0.185 E-score

Prompt line: // fetch binding signal given entry "CACGCCCC"
Response line: 0.29 E-score

Prompt line: Read the entry "GGTGTGAA" and write its reported binding signal.
Response line: 0.427 E-score

Prompt line: Answer with reported binding signal of "AGAGTAAC"
Response line: 0.163 E-score

Prompt line: Using the record for "GGTGATAC" , state its measured binding signal.
Response line: 0.313 E-score

Prompt line: Dear colleague, please send me the reported binding signal for "ACCGCGTG" when you can.
Response line: 0.246 E-score

Prompt line: For "GGTGTGTA" , write its binding signal.
Response line: 0.411 E-score

Prompt line: Identify binding signal associated with the sequence "CCCACTCC"
Response line: 0.159 E-score

Prompt line: Give the reported value of binding signal for this record: "CAGGAACA"
Response line: 0.259 E-score

Prompt line: Quickly give me recorded binding signal for "ACCCCGTG"
Response line: 0.356 E-score

Prompt line: Look up binding signal of "ACTCCGGA" and report it.
Response line: 0.204 E-score

Prompt line: Look up binding signal of "CGTGTGCA" and report it.
Response line: 0.202 E-score

Prompt line: Supply measured binding signal of "CAGCGGGG" in your reply.
Response line: 0.194 E-score

Prompt line: // Input: "GGTGTGCA" . Output its binding signal only.
Response line: 0.391 E-score
